Each recorded value in this set is attributed to ChEMBL document CHEMBL2440076.

pIC50 values by entry
- Test system: PC-3
- ASSAY DETAILS: Growth inhibition of human PC3 cells after 48 hrs by sulforhodamine B assay
- Assay type: functional, cell-based
- EXPERIMENTAL CONTEXT: PC-3, 48 h
API: returns pIC50 as number; meaning -log10 of concentration in mol/L.

{"ITEM SMILES": "COc1cc(-c2nn(-c3cccc(NC(=O)c4ccc(N5CCOCC5)c(C(F)(F)F)c4)c3)cc2-c2ccncc2)ccc1Cl", "REPORTED PROPERTY": "pIC50", "ENDPOINT RESULT": 6.60}

// query Report pIC50 for O=C(Nc1cccc(-n2cc(-c3ccncc3)c(-c3ccc(Cl)c(O)c3)n2)c1)c1ccc(N2CCOCC2)c(C(F)(F)F)c1 please.
// result 5.67

// query Any idea what pIC50 was measured for COc1cc(-c2nn(-c3cccc(NC(=O)Nc4cc(C(F)(F)F)cc(C(F)(F)F)c4)c3)cc2-c2ccncc2)ccc1Cl ?
// result 6.60

// query # get_value(readout='pIC50', item= COc1cc(-c2nn(-c3cccc(NC(=O)Nc4cccc(C(F)(F)F)c4)c3)cc2-c2ccncc2)ccc1Cl )
// result 6.43

// query pIC50 lookup needed for COc1cc(-c2nn(-c3cccc(NC(=O)c4cccc(C(F)(F)F)c4)c3)cc2-c2ccncc2)ccc1Cl , thanks.
// result 5.91

###

- Tested on: SNB-19
- ASSAY DETAILS: Growth inhibition of human SNB19 cells after 48 hrs by sulforhodamine B assay
- Assay type: functional
- EXPERIMENTAL CONTEXT: SNB-19, 48 h
REPORTED PROPERTY: TGI

{"ITEM SMILES": "O=C(Nc1cccc(-n2cc(-c3ccncc3)c(-c3ccc(Cl)c(O)c3)n2)c1)Nc1cccc(C(F)(F)F)c1", "TGI": "> 32.5 µM"}
{"ITEM SMILES": "COc1cc(-c2nn(-c3cccc(NC(=O)c4ccc(N5CCOCC5)c(C(F)(F)F)c4)c3)cc2-c2ccncc2)ccc1Cl", "TGI": "> 100 µM"}
{"ITEM SMILES": "COc1cc(-c2nn(-c3cccc(NC(=O)c4cccc(C(F)(F)F)c4)c3)cc2-c2ccncc2)ccc1Cl", "TGI": "> 50 µM"}
{"ITEM SMILES": "O=C(Nc1cccc(-n2cc(-c3ccncc3)c(-c3ccc(Cl)c(O)c3)n2)c1)Nc1ccc(Cl)c(C(F)(F)F)c1", "TGI": "4.86 µM"}

// next entry
// query Which TGI value is on record for O=C(Nc1cccc(-n2cc(-c3ccncc3)c(-c3ccc(Cl)c(O)c3)n2)c1)c1ccc(N2CCOCC2)c(C(F)(F)F)c1 ?
// result > 50 µM

###

- System: RXF 393
- ASSAY DETAILS: Growth inhibition of human RXF393 cells assessed as cell growth at 10 uM after 48 hrs by sulforhodamine B assay
- Type: functional
- EXPERIMENTAL CONTEXT: RXF 393, 48 h, read-out: Activity
One threshold, -40%, splits the recorded growth at 10 µM values: lower ones are fulfilled, equal or higher ones are not fulfilled.

Please review the following examples before continuing.
{"ITEM SMILES": "COc1cc(-c2nn(-c3cccc(NC(=O)Nc4cc(C(F)(F)F)cc(C(F)(F)F)c4)c3)cc2-c2ccncc2)ccc1Cl", "ASSIGNED LABEL": "fulfilled"}
{"ITEM SMILES": "COc1cc(-c2nn(-c3cccc(NC(=O)Nc4ccc(Cl)c(C(F)(F)F)c4)c3)cc2-c2ccncc2)ccc1Cl", "ASSIGNED LABEL": "not fulfilled"}
{"ITEM SMILES": "O=C(Nc1cccc(-n2cc(-c3ccncc3)c(-c3ccc(Cl)c(O)c3)n2)c1)c1ccc(N2CCOCC2)c(C(F)(F)F)c1", "ASSIGNED LABEL": "not fulfilled"}
{"ITEM SMILES": "COc1cc(-c2nn(-c3cccc(NC(=O)c4cccc(C(F)(F)F)c4)c3)cc2-c2ccncc2)ccc1Cl", "ASSIGNED LABEL": "fulfilled"}

Now let's try a different one.
// query Given COc1cc(-c2nn(-c3cccc(NC(=O)c4ccccc4)c3)cc2-c2ccncc2)ccc1Cl , is recorded growth at 10 µM strictly lower than -40%?
// result not fulfilled

###

- Tested on: OVCAR-3
- ASSAY DETAILS: Growth inhibition of human OVCAR3 cells assessed as cell growth at 5X10'-5 M after 48 hrs by sulforhodamine B assay
- Format: functional
- EXPERIMENTAL CONTEXT: OVCAR-3, 48 h, read-out: Activity
REPORTED PROPERTY: growth at 50 µM (%)
Number in %, nothing else.

Reference set, count: 4
{"ITEM SMILES": "COc1cc(-c2nn(-c3cccc(NC(=O)c4cccc(C(F)(F)F)c4)c3)cc2-c2ccncc2)ccc1Cl", "ENDPOINT RESULT": -38}
{"ITEM SMILES": "COc1cc(-c2nn(-c3cccc(NC(=O)Nc4cccc(C(F)(F)F)c4)c3)cc2-c2ccncc2)ccc1Cl", "ENDPOINT RESULT": -54}
{"ITEM SMILES": "O=C(Nc1cccc(-n2cc(-c3ccncc3)c(-c3ccc(Cl)c(O)c3)n2)c1)Nc1cc(C(F)(F)F)cc(C(F)(F)F)c1", "ENDPOINT RESULT": -94}
{"ITEM SMILES": "COc1cc(-c2nn(-c3cccc(NC(=O)Nc4cc(C(F)(F)F)cc(C(F)(F)F)c4)c3)cc2-c2ccncc2)ccc1Cl", "ENDPOINT RESULT": -78}

Turning now to a further record.
// query Request - read-out growth at 50 µM | tested on OVCAR-3 | molecule COc1cc(-c2nn(-c3cccc(NC(=O)Nc4ccc(Cl)c(Cl)c4)c3)cc2-c2ccncc2)ccc1Cl
// result -50

###

Measured TGI values are reported for all entries that follow.
- Test system: T47D
- ASSAY DETAILS: Growth inhibition of human T47D cells after 48 hrs by sulforhodamine B assay
- Type: functional
Expressed in µM, but write only the number.

{"ITEM SMILES": "O=C(Nc1cccc(-n2cc(-c3ccncc3)c(-c3ccc(Cl)c(O)c3)n2)c1)Nc1ccc(Cl)c(Cl)c1", "UNIT LABEL": "µM", "TGI": 17.9}

Let us move to another entry and its TGI.
// query Given the entry O=C(Nc1cccc(-n2cc(-c3ccncc3)c(-c3ccc(Cl)c(O)c3)n2)c1)Nc1cc(C(F)(F)F)cc(C(F)(F)F)c1 , report its measured TGI.
// result 14

###

- Tested on: CAKI-1
- ASSAY DETAILS: Growth inhibition of human CAKI-1 cells assessed as cell growth at 3X10'-7 M after 48 hrs by sulforhodamine B assay
- Format: functional
- EXPERIMENTAL CONTEXT: CAKI-1, 48 h, read-out: Activity
REPORTED PROPERTY: growth at 0.3 µM (%)
Number only, in %; omit the unit.

Some solved cases for reference:
{"ITEM SMILES": "COc1cc(-c2nn(-c3cccc(NC(=O)c4ccc(Cl)c(C(F)(F)F)c4)c3)cc2-c2ccncc2)ccc1Cl", "UNIT LABEL": "%", "growth at 0.3 µM": 85}
{"ITEM SMILES": "O=C(Nc1cccc(-n2cc(-c3ccncc3)c(-c3ccc(Cl)c(O)c3)n2)c1)Nc1ccc(Cl)c(Cl)c1", "UNIT LABEL": "%", "growth at 0.3 µM": 88}
{"ITEM SMILES": "COc1cc(-c2nn(-c3cccc(NC(=O)Nc4ccc(Cl)c(C(F)(F)F)c4)c3)cc2-c2ccncc2)ccc1Cl", "UNIT LABEL": "%", "growth at 0.3 µM": 93}

Now consider the entry below.
// query Look up growth at 0.3 µM: O=C(Nc1cccc(-n2cc(-c3ccncc3)c(-c3ccc(Cl)c(O)c3)n2)c1)Nc1ccc(Cl)c(C(F)(F)F)c1
// result 87

###

compounds and their reported CC50
- System: SR
- ASSAY DETAILS: Growth inhibition of human SR cells after 48 hrs by sulforhodamine B assay
- Assay type: functional
- EXPERIMENTAL CONTEXT: read-out: LC50 (the source's name)

{"ITEM SMILES": "COc1cc(-c2nn(-c3cccc(NC(=O)Nc4ccc(Cl)c(C(F)(F)F)c4)c3)cc2-c2ccncc2)ccc1Cl", "CC50": "> 32.5 µM"}
{"ITEM SMILES": "O=C(Nc1cccc(-n2cc(-c3ccncc3)c(-c3ccc(Cl)c(O)c3)n2)c1)Nc1ccc(Cl)c(C(F)(F)F)c1", "CC50": "> 32.5 µM"}
{"ITEM SMILES": "COc1cc(-c2nn(-c3cccc(NC(=O)Nc4cc(C(F)(F)F)cc(C(F)(F)F)c4)c3)cc2-c2ccncc2)ccc1Cl", "CC50": "> 50 µM"}

// query Which CC50 is listed for O=C(Nc1cccc(-n2cc(-c3ccncc3)c(-c3ccc(Cl)c(O)c3)n2)c1)Nc1ccc(Cl)c(Cl)c1 ?
// result > 32.5 µM
